Multi-source literature compilation: Ki on Melanocortin receptor 4 (Homo sapiens, UniProt P32245).
Sequence (P32245 whole entry): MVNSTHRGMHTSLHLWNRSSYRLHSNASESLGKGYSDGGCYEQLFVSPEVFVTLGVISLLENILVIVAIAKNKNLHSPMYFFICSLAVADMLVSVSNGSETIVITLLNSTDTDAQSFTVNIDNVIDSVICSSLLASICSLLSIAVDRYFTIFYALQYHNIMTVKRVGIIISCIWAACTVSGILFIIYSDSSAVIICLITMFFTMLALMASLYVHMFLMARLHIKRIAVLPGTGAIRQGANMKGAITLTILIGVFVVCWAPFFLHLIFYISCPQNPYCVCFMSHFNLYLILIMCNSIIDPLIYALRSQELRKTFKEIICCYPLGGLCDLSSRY
Lab book: enter the figure in nM, no units written.

Solved cases below.
test_smiles=CC(C)CC(=O)c1ccccc1N1CCN(C(=O)[C@@H](Cc2ccc(Cl)cc2Cl)NC(=O)[C@H](C)N)CC1 assay_target="Melanocortin receptor 4 (Homo sapiens, UniProt P32245)" endpoint_result=26
test_smiles=COc1ccc(Br)cc1CCc1ccccc1-c1ncc(C)n1C assay_target="Melanocortin receptor 4 (Homo sapiens, UniProt P32245)" endpoint_result=180
test_smiles=Cc1ccc([C@@H](CC(C)C)NC(=O)CCN(C)C)c(N2CCN(C(=O)[C@H](C)Cc3ccc(Cl)cc3Cl)CC2)n1 assay_target="Melanocortin receptor 4 (Homo sapiens, UniProt P32245)" endpoint_result=2.5
test_smiles=N=C(N)NCCC[C@H](NC(=O)[C@H](Cc1ccccc1)NC(=O)[C@H](Cc1c[nH]cn1)NC(=O)CCc1ccccc1)C(=O)N[C@@H](Cc1c[nH]c2ccccc12)C(N)=O assay_target="Melanocortin receptor 4 (Homo sapiens, UniProt P32245)" endpoint_result=49
test_smiles=CC(=O)N1CC[C@H](c2ccc(F)cc2)[C@@H]1C(=O)N1CCN(c2ccc(C)cc2[C@@H](N)C(C)C)CC1 assay_target="Melanocortin receptor 4 (Homo sapiens, UniProt P32245)" endpoint_result=330

Case O=C(Cc1ccccc1)NCC1(N2CCN(C(=O)[C@@H](Cc3ccc(Cl)cc3)NC(=O)c3ccco3)CC2)CCCCC1 , Melanocortin receptor 4 (Homo sapiens, UniProt P32245), Ki recorded as 100

Form field, Ki with Melanocortin receptor 4 (Homo sapiens, UniProt P32245), item N=C(N)NCCC[C@@H]1NC(=O)[C@@H](Cc2ccccc2)NC(=O)[C@H](Cc2c[nH]cn2)NC(=O)CCCCCNC(=O)[C@H](Cc2c[nH]c3ccccc23)NC1=O : 670
